The reported numbers originate from PubChem BioAssay AID1963866.

system: PDC KRAS tumor spheroids with HUVEC/MSC, viability; experiment: Anticancer human tumor 349418-098-R-PDC patient-derived lung adenocarcinoma cell line growth inhibition [KRAS2]; conditions: second compound 0.1 µM; first compound 10 µM; active = viability on the fitted dose curve at most 10% of control; inactive = the rest
Outcome codes: 1 for active, -1 for inactive

- compound: "COc1cc(Nc2ncc3c(n2)-c2ccc(Cl)cc2C(c2c(F)cccc2OC)=NC3)ccc1C(=O)O + CC1OCC2(CCN(c3cnc(Sc4ccnc(N)c4Cl)c(N)n3)CC2)C1N"
  discrete.label: -1
- compound: "CC1(C)CCC(CN2CCN(c3ccc(C(=O)NS(=O)(=O)c4ccc(NCC5CCOCC5)c([N+](=O)[O-])c4)c(Oc4cnc5[nH]ccc5c4)c3)CC2)=C(c2ccc(Cl)cc2)C1 + C=CC(=O)N1CCN(c2nc(=O)n(-c3c(C)ccnc3C(C)C)c3nc(-c4c(O)cccc4F)c(F)cc23)C(C)C1"
  discrete.label: 1
- compound: "Cn1nccc1Nc1nccc(-c2cc3c(s2)C(C)(C)N(CCN2CCOCC2)C3=O)n1 + C=CC(=O)N1CCN(c2nc(=O)n(-c3c(C)ccnc3C(C)C)c3nc(-c4c(O)cccc4F)c(F)cc23)C(C)C1"
  discrete.label: 1

---

Documented pIC50 across a set of molecules
system: PDC KRAS tumor spheroids with HUVEC/MSC, viability; test: Anticancer human tumor 349418-098-R-PDC cell line growth inhibition [KRAS2]; settings: curve of first compound; second compound 10 µM;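 note: spheroids exposed to compounds for seven days before readout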
pIC50: −log10 of the molar value.

- molecule: "CC1COCCN1c1cc(-c2ccnn2C)c2ccnc(-c3ccn[nH]3)c2n1 (stereo not given) + CC1OCC2(CCN(c3cnc(Sc4ccnc(N)c4Cl)c(N)n3)CC2)C1N"
  value.comparator: "="
  pIC50: 7.60
- molecule: "CCN1CCN(Cc2ccc(Nc3ncc(F)c(-c4cc(F)c5nc(C)n(C(C)C)c5c4)n3)nc2)CC1 + COc1cc2nc(C)nc(NC(C)c3cc(N)cc(C(F)(F)F)c3)c2cc1OC1CCOC1"
  value.comparator: ">"
  pIC50: 8.50
- molecule: "CCNC(=O)CC1N=C(c2ccc(Cl)cc2)c2cc(OC)ccc2-n2c(C)nnc21 (stereo not given) + COc1cc2nc(C)nc(NC(C)c3cc(N)cc(C(F)(F)F)c3)c2cc1OC1CCOC1"
  value.comparator: ">"
  pIC50: 7.50
- molecule: "CC(=O)OC12COC1CC(O)C1(C)C(=O)C(O)C3=C(C)C(OC(=O)C(O)C(NC(=O)OC(C)(C)C)c4ccccc4)CC(O)(C(OC(=O)c4ccccc4)C21)C3(C)C (stereo not given) + C=CC(=O)N1CCN(c2nc(=O)n(-c3c(C)ccnc3C(C)C)c3nc(-c4c(O)cccc4F)c(F)cc23)C(C)C1"
  value.comparator: ">"
  pIC50: 8.00
- molecule: "COc1cc(Nc2ncc3c(n2)-c2ccc(Cl)cc2C(c2c(F)cccc2OC)=NC3)ccc1C(=O)O + CC1OCC2(CCN(c3cnc(Sc4ccnc(N)c4Cl)c(N)n3)CC2)C1N"
  value.comparator: "="
  pIC50: 7.47

---

system: PDC KRAS tumor spheroids with HUVEC/MSC, viability; test: Anticancer human tumor 349418-098-R-PDC cell line growth inhibition [KRAS2]; conditions: second compound 0.1 µM; first compound 0.00316 µM; stronger effect = lower value;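 note: spheroids exposed to compounds for seven days before readout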

- compound: "CCN1CCN(Cc2ccc(Nc3ncc(F)c(-c4cc(F)c5nc(C)n(C(C)C)c5c4)n3)nc2)CC1 + CNCc1ccccc1-c1csc(C(C)Nc2nc(C)nc3cc(OC)c(OC)cc23)c1"
  system: "PDC KRAS tumor spheroids with HUVEC/MSC, viability"
  viability, T/C: "71%"
- compound: "Cn1ncnc1[C@H]1c2n[nH]c(=O)c3cc(F)cc(c23)N[C@@H]1c1ccc(F)cc1 + C=CC(=O)N1CCN(c2nc(OCC3CCCN3C)nc3c2CCN(c2cccc4cccc(C)c24)C3)CC1CC#N"
  system: "PDC KRAS tumor spheroids with HUVEC/MSC, viability"
  viability, T/C: "83.6%"
- compound: "CN(C)C/C=C/C(=O)Nc1cc2c(Nc3ccc(F)c(Cl)c3)ncnc2cc1O[C@H]1CCOC1 + CC1OCC2(CCN(c3cnc(Sc4ccnc(N)c4Cl)c(N)n3)CC2)C1N"
  system: "PDC KRAS tumor spheroids with HUVEC/MSC, viability"
  viability, T/C: "105%"
- compound: "CN(C)C/C=C/C(=O)Nc1cc2c(Nc3ccc(F)c(Cl)c3)ncnc2cc1O[C@H]1CCOC1 + C=CC(=O)N1CCN(c2nc(=O)n(-c3c(C)ccnc3C(C)C)c3nc(-c4c(O)cccc4F)c(F)cc23)C(C)C1"
  system: "PDC KRAS tumor spheroids with HUVEC/MSC, viability"
  viability, T/C: "98.7%"
- compound: "CC(C)n1nc(-c2ccc3oc(N)nc3c2)c2c(N)ncnc21 + CNCc1ccccc1-c1csc(C(C)Nc2nc(C)nc3cc(OC)c(OC)cc23)c1"
  system: "PDC KRAS tumor spheroids with HUVEC/MSC, viability"
  viability, T/C: "20.9%"
- compound: "CC(=O)Nc1cccc(-n2c(=O)n(C3CC3)c(=O)c3c(Nc4ccc(I)cc4F)n(C)c(=O)c(C)c32)c1 + C=CC(=O)N1CCN(c2nc(OCC3CCCN3C)nc3c2CCN(c2cccc4cccc(C)c24)C3)CC1CC#N"
  system: "PDC KRAS tumor spheroids with HUVEC/MSC, viability"
  viability, T/C: "10.9%"
- compound: "Cn1ncnc1[C@H]1c2n[nH]c(=O)c3cc(F)cc(c23)N[C@@H]1c1ccc(F)cc1 + C=CC(=O)N1CCN(c2nc(=O)n(-c3c(C)ccnc3C(C)C)c3nc(-c4c(O)cccc4F)c(F)cc23)C(C)C1"
  system: "PDC KRAS tumor spheroids with HUVEC/MSC, viability"
  viability, T/C: "94.5%"
- compound: "CC(C)n1nc(-c2ccc3oc(N)nc3c2)c2c(N)ncnc21 + C=CC(=O)N1CCN(c2nc(=O)n(-c3c(C)ccnc3C(C)C)c3nc(-c4c(O)cccc4F)c(F)cc23)C(C)C1"
  system: "PDC KRAS tumor spheroids with HUVEC/MSC, viability"
  viability, T/C: "17.4%"
- compound: "CC(=O)Nc1cccc(-n2c(=O)n(C3CC3)c(=O)c3c(Nc4ccc(I)cc4F)n(C)c(=O)c(C)c32)c1 + C=CC(=O)N1CCN(c2nc(=O)n(-c3c(C)ccnc3C(C)C)c3nc(-c4c(O)cccc4F)c(F)cc23)C(C)C1"
  system: "PDC KRAS tumor spheroids with HUVEC/MSC, viability"
  viability, T/C: "17.6%"
- compound: "CCN1CCN(Cc2ccc(Nc3ncc(F)c(-c4cc(F)c5nc(C)n(C(C)C)c5c4)n3)nc2)CC1 + C=CC(=O)N1CCN(c2nc(=O)n(-c3c(C)ccnc3C(C)C)c3nc(-c4c(O)cccc4F)c(F)cc23)C(C)C1"
  system: "PDC KRAS tumor spheroids with HUVEC/MSC, viability"
  viability, T/C: "71.8%"
- compound: "CC(C)n1nc(-c2ccc3oc(N)nc3c2)c2c(N)ncnc21 + COc1cc2nc(C)nc(NC(C)c3cc(N)cc(C(F)(F)F)c3)c2cc1OC1CCOC1"
  system: "PDC KRAS tumor spheroids with HUVEC/MSC, viability"
  viability, T/C: "16.5%"
- compound: "CCN1CCN(Cc2ccc(Nc3ncc(F)c(-c4cc(F)c5nc(C)n(C(C)C)c5c4)n3)nc2)CC1 + C=CC(=O)N1CCN(c2nc(OCC3CCCN3C)nc3c2CCN(c2cccc4cccc(C)c24)C3)CC1CC#N"
  system: "PDC KRAS tumor spheroids with HUVEC/MSC, viability"
  viability, T/C: "80.7%"
- compound: "CC(=O)Nc1cccc(-n2c(=O)n(C3CC3)c(=O)c3c(Nc4ccc(I)cc4F)n(C)c(=O)c(C)c32)c1 + CC1OCC2(CCN(c3cnc(Sc4ccnc(N)c4Cl)c(N)n3)CC2)C1N"
  system: "PDC KRAS tumor spheroids with HUVEC/MSC, viability"
  viability, T/C: "7.14%"
- compound: "Cn1ncnc1[C@H]1c2n[nH]c(=O)c3cc(F)cc(c23)N[C@@H]1c1ccc(F)cc1 + COc1cc2nc(C)nc(NC(C)c3cc(N)cc(C(F)(F)F)c3)c2cc1OC1CCOC1"
  system: "PDC KRAS tumor spheroids with HUVEC/MSC, viability"
  viability, T/C: "100%"
- compound: "CC(C)n1nc(-c2ccc3oc(N)nc3c2)c2c(N)ncnc21 + C=CC(=O)N1CCN(c2nc(OCC3CCCN3C)nc3c2CCN(c2cccc4cccc(C)c24)C3)CC1CC#N"
  system: "PDC KRAS tumor spheroids with HUVEC/MSC, viability"
  viability, T/C: "13.9%"
- compound: "CCN1CCN(Cc2ccc(Nc3ncc(F)c(-c4cc(F)c5nc(C)n(C(C)C)c5c4)n3)nc2)CC1 + COc1cc2nc(C)nc(NC(C)c3cc(N)cc(C(F)(F)F)c3)c2cc1OC1CCOC1"
  system: "PDC KRAS tumor spheroids with HUVEC/MSC, viability"
  viability, T/C: "49.7%"
- compound: "CCN1CCN(Cc2ccc(Nc3ncc(F)c(-c4cc(F)c5nc(C)n(C(C)C)c5c4)n3)nc2)CC1 + CC1OCC2(CCN(c3cnc(Sc4ccnc(N)c4Cl)c(N)n3)CC2)C1N"
  system: "PDC KRAS tumor spheroids with HUVEC/MSC, viability"
  viability, T/C: "66.4%"
- compound: "CC(C)n1nc(-c2ccc3oc(N)nc3c2)c2c(N)ncnc21 + CC1OCC2(CCN(c3cnc(Sc4ccnc(N)c4Cl)c(N)n3)CC2)C1N"
  system: "PDC KRAS tumor spheroids with HUVEC/MSC, viability"
  viability, T/C: "12.7%"
- compound: "CN(C)C/C=C/C(=O)Nc1cc2c(Nc3ccc(F)c(Cl)c3)ncnc2cc1O[C@H]1CCOC1 + COc1cc2nc(C)nc(NC(C)c3cc(N)cc(C(F)(F)F)c3)c2cc1OC1CCOC1"
  system: "PDC KRAS tumor spheroids with HUVEC/MSC, viability"
  viability, T/C: "88.8%"
- compound: "CN(C)C/C=C/C(=O)Nc1cc2c(Nc3ccc(F)c(Cl)c3)ncnc2cc1O[C@H]1CCOC1 + CNCc1ccccc1-c1csc(C(C)Nc2nc(C)nc3cc(OC)c(OC)cc23)c1"
  system: "PDC KRAS tumor spheroids with HUVEC/MSC, viability"
  viability, T/C: "102%"
